All figures here come from the PolyMetriX glass transition set.

Consider the following partition of reported glass transition temperature into named classes: lo: < 70 °C; med: ≥ 70 °C and < 200 °C; hi: ≥ 200 °C

{"columns": ["Molecule", "Discrete Label"],
 "data": [
  ["*CC(*)(F)C(=O)OC (repeat unit)", "med"],
  ["*C(=O)Oc1ccc(OC(=O)c2ccc3c(c2)C(=O)N(c2ccc(Oc4ccc(N5C(=O)c6ccc(*)cc6C5=O)cc4)cc2)C3=O)c(-c2ccccc2)c1 (repeat unit)", "hi"],
  ["*CC(*)(C)C(=O)OCCNC(C)(C)C (repeat unit)", "lo"],
  ["*c1ccc(C2(c3ccc(-c4cc(-c5ccccc5)c5cc(C6(c7ccc8nc(*)cc(-c9ccccc9)c8c7)c7ccccc7C(=O)c7ccccc76)ccc5n4)cc3)c3ccccc3C(=O)c3ccccc32)cc1 (repeat unit)", "hi"],
  ["*c1ccc2cc3cc(-c4sc(-c5cc(CCCCCCCCCCCC)c(*)s5)cc4CCCCCCCCCCCC)ccc3cc2c1 (repeat unit)", "med"],
  ["*c1ccc(-c2c(-c3ccc(-c4ccccc4)cc3)cc(-c3ccc(OCCCCCCCCCCOc4ccc(-c5cc(-c6ccc(-c7ccccc7)cc6)c(-c6ccc(-n7c(=O)c8cc9c(=O)n(*)c(=O)c9cc8c7=O)cc6)c(-c6ccc(-c7ccccc7)cc6)c5)cc4)cc3)cc2-c2ccc(-c3ccccc3)cc2)cc1 (repeat unit)", "med"],
  ["*C(=O)Nc1cc(NC(=O)c2cncc(*)c2)cc(-c2nnc(-c3ccccn3)o2)c1 (repeat unit)", "med"],
  ["*OP(=O)(Oc1c(Cl)cc(Cl)cc1Cl)Oc1c(Cl)c(Cl)c(*)c(Cl)c1Cl (repeat unit)", "med"],
  ["*Oc1ccc(C2(c3ccc(OC(*)=O)cc3)c3ccccc3-c3ccccc32)cc1 (repeat unit)", "hi"],
  ["*CC(c1ccccc1)C1C(=O)N(c2ccccc2)C(=O)C1* (repeat unit)", "hi"],
  ["*c1cccc(C(=O)c2c(C)cc(C)c(N3C(=O)c4ccc(Oc5ccc6c(c5)C(=O)N(*)C6=O)cc4C3=O)c2C)c1 (repeat unit)", "hi"],
  ["*CC(*)(C)C(=O)OCCCCCCN1CCN(c2ccc(/N=N/c3ccc(C#N)cc3)cc2)CC1 (repeat unit)", "med"],
  ["*c1c(C)cc(C)c(N2C(=O)c3ccc(Sc4ccc5c(c4)C(=O)N(*)C5=O)cc3C2=O)c1C (repeat unit)", "hi"],
  ["*CCOC(=O)NC1CCC(CC2CCC(NC(=O)OCCOc3ccc(C4(c5ccc(O*)cc5)c5ccccc5-c5ccccc54)cc3)CC2)CC1 (repeat unit)", "med"],
  ["*CCCCCCCCCCOC(=O)CCCCCCCCC(=O)O* (repeat unit)", "lo"],
  ["*CC1CCC(COC(=O)O*)CC1 (repeat unit)", "lo"],
  ["*Oc1c(Cl)cc(C(C)(C)c2cc(Cl)c(OC(=O)CCCCC(*)=O)c(Cl)c2)cc1Cl (repeat unit)", "med"],
  ["*OC(=O)c1ccc(C(=O)OC2COC3C(*)COC23)cc1 (repeat unit)", "hi"],
  ["*CC(*)(C)C(=O)OCCCCCCCCCCOc1ccc(/N=N/c2ccc(OC)cc2)cc1 (repeat unit)", "lo"],
  ["*c1ccc([Si](*)(C)C)s1 (repeat unit)", "lo"],
  ["*CCCCCOC(=O)CCCCCCCCCCN1C(=O)c2ccc(-c3ccc(-c4ccc5c(c4)C(=O)N(CCCCCCCCCCC(=O)OCCCCCN4C(=O)c6ccc(-c7ccc8c(c7)C(=O)N(*)C8=O)cc6C4=O)C5=O)cc3)cc2C1=O (repeat unit)", "lo"],
  ["*Nc1ccc(Cc2ccc(NC(=O)c3cc(NC(=O)CCCCCCCCCCN4C(=O)c5ccccc5C4=O)cc(C(*)=O)c3)cc2)cc1 (repeat unit)", "med"],
  ["*Oc1ccc(S(=O)(=O)c2ccc(Oc3cc(C)c(C(c4cc(C(C)C)c(*)cc4C)c4ccccc4C(=O)O)cc3C(C)C)cc2)cc1 (repeat unit)", "hi"],
  ["*CC(*)c1cc(C(=O)Oc2ccc(OC)cc2)ccc1C(=O)Oc1ccc(OC)cc1 (repeat unit)", "med"],
  ["*CCC(C)CCC(=O)O* (repeat unit)", "lo"],
  ["*c1nc(-c2ccccc2)nc(N(CCCCN(*)c2ccccc2)c2ccccc2)n1 (repeat unit)", "med"],
  ["*CC(*)(C)C(=O)OCc1c(Cl)cccc1Cl (repeat unit)", "lo"],
  ["*CCCCOCCCCOCCCCOC(=O)c1ccc(/N=C/c2ccc(/C=N/c3ccc(C(=O)O*)cc3)cc2)cc1 (repeat unit)", "lo"],
  ["*CC(COc1ccc(-c2ccc(C#N)cc2)cc1)O* (repeat unit)", "med"]
]}

----------
Measured Parameter: glass transition temperature (°C)

{"columns": ["Compound", "Measured Parameter", "Experimental Value"],
 "data": [
  ["*Oc1ccc(C(c2ccc(Oc3ccc(C(=O)c4c(C(=O)c5ccc(*)cc5)c(-c5ccc(F)cc5)c(-c5ccc(F)cc5)c(-c5ccc(F)cc5)c4-c4ccc(F)cc4)cc3)cc2)(C(F)(F)F)C(F)(F)F)cc1 (repeat unit)", "glass transition temperature", 253.00],
  ["*CCCCCCCCCCC(=O)Nc1ccc(Oc2ccc(NC(=O)CCCCCCCCCCN3C(=O)c4ccc(C(=O)c5ccc6c(c5)C(=O)N(*)C6=O)cc4C3=O)cc2)cc1 (repeat unit)", "glass transition temperature", 132.00],
  ["*CC[CH2][Sn]([CH3])([CH3])[CH2]CCOC(=O)C(CCCCCCCCOc1ccc(-c2ccc(OCc3ccc(C#N)cc3)cc2)cc1)C(=O)O* (repeat unit)", "glass transition temperature", 22.00],
  ["*c1ccc(Oc2cccc(NC(=O)c3ccc(C(=O)Nc4cccc(Oc5ccc(-c6nnc(*)o6)cc5)c4)c(Oc4ccccc4)c3)c2)cc1 (repeat unit)", "glass transition temperature", 234.00],
  ["*Oc1ccc(Oc2ccc(C(=O)c3cccc(C(=O)c4ccc(*)cc4)c3)cc2)cc1S(=O)(=O)O (repeat unit)", "glass transition temperature", 195.00],
  ["*CCCCCCCCCCCCNC(=O)CCCCCCCCCCCCC(=O)N* (repeat unit)", "glass transition temperature", 49.00],
  ["*Nc1ccc(NC(=O)c2ccc(NC(=O)CCCCCCCCCCCCC(=O)Nc3ccc(C(*)=O)cc3)cc2)cc1C(=O)OCCCCCCCCCCCCCCCC (repeat unit)", "glass transition temperature", 250.00],
  ["*CCOCCOCCOC(=O)c1cc(/N=N/c2ccc(OCC)cc2)ccc1-c1ccc(/N=N/c2ccc(OCC)cc2)cc1C(=O)O* (repeat unit)", "glass transition temperature", 65.00],
  ["*C1C(=O)N(CCCCCCOc2ccc(-c3ccc(C#N)cc3)cc2)C(=O)C1* (repeat unit)", "glass transition temperature", 76.00],
  ["*CCCCCCOC(=O)Nc1cccc(P(=O)(c2ccccc2)c2cccc(NC(=O)O*)c2)c1 (repeat unit)", "glass transition temperature", 30.00],
  ["*CCCCCCCCCCCCCCc1ccc(-c2c(-c3ccccc3)cc(-c3ccc(-c4cc(-c5ccccc5)c(-c5ccc(*)cc5)c(-c5ccccc5)c4-c4ccccc4)cc3)c(-c3ccccc3)c2-c2ccccc2)cc1 (repeat unit)", "glass transition temperature", 185.00],
  ["*c1ccc(-c2ccc(-c3ccc(-c4ccc([Si](*)(CCCC)CCCC)s4)s3)s2)s1 (repeat unit)", "glass transition temperature", 1.00],
  ["*CCCC(C)(C)CNC(=O)c1ccc(C(=O)N*)cc1 (repeat unit)", "glass transition temperature", 157.00],
  ["*C(=O)Nc1cccc(N2C(=O)CC(N3C(=O)c4ccc(*)cc4C3=O)C2=O)c1 (repeat unit)", "glass transition temperature", 130.00],
  ["*C(=O)Nc1ccc(Oc2ccc(C(C)(C)c3cccc(C(C)(C)c4ccc(Oc5ccc(N6C(=O)c7ccc(*)cc7C6=O)cc5)cc4)c3)cc2)cc1 (repeat unit)", "glass transition temperature", 177.00],
  ["*CC(*)OC(C)CC (repeat unit)", "glass transition temperature", -22],
  ["*c1ccc2c(c1)C(=O)N(c1c(C)cc(Cc3cc(C)c(N4C(=O)c5ccc(C(*)(C(F)(F)F)C(F)(F)F)cc5C4=O)c(C(C)C)c3)cc1C(C)C)C2=O (repeat unit)", "glass transition temperature", 276.00],
  ["*CC(*)(C)C(=O)OCCCCCCCCOc1ccc(/N=N/c2ccc(C3OCC4(CO3)CC3C=CC4C3)cc2)cc1 (repeat unit)", "glass transition temperature", 106.20],
  ["*CCCOC(=O)Nc1cc(NC(=O)O*)ccc1C (repeat unit)", "glass transition temperature", 6.00],
  ["*Nc1ccc(Cc2ccc(NC(=O)c3cc(C(*)=O)cc(S(=O)(=O)c4ccccc4)c3)cc2)cc1 (repeat unit)", "glass transition temperature", 270.00],
  ["*CC(*)C1CCCC1 (repeat unit)", "glass transition temperature", 75],
  ["*c1ccc(-c2ccc(-c3cc(-c4ccccc4)c4cc(-c5ccc6nc(*)cc(-c7ccccc7)c6c5)ccc4n3)cc2)cc1 (repeat unit)", "glass transition temperature", 360.00],
  ["*c1ccc(Oc2ccc(C(=O)c3cccc(C(=O)c4ccc(Oc5ccc(N6C(=O)c7ccc(Oc8ccc9c(c8)C(=O)N(*)C9=O)cc7C6=O)cc5C(F)(F)F)cc4)n3)cc2)c(C(F)(F)F)c1 (repeat unit)", "glass transition temperature", 212.20],
  ["*C(=O)OCCOC(=O)N1CCN(*)CC1 (repeat unit)", "glass transition temperature", 60.00],
  ["*Nc1cccc(NC(=O)Cc2cc(C)c(CC(*)=O)cc2C)c1 (repeat unit)", "glass transition temperature", 249.00],
  ["*C(=O)Nc1ccc(Oc2ccc(-c3ccc(Oc4ccc(NC(=O)c5ccc6c(c5)C(=O)N(c5cccc(N7C(=O)c8ccc(*)cc8C7=O)c5)C6=O)cc4)cc3)cc2)cc1 (repeat unit)", "glass transition temperature", 292.00],
  ["*Nc1ccc(C(c2ccc(NC(=O)c3ccc(C(*)=O)cc3)cc2)(C(F)(F)F)C(F)(F)F)cc1 (repeat unit)", "glass transition temperature", 290.00],
  ["*c1ccc(OC(=O)c2cccc(C(=O)Oc3ccc(C4(*)C(=O)Nc5ccccc54)cc3)c2)cc1 (repeat unit)", "glass transition temperature", 256.00]
]}
